Cited source: the supplement of paper PMC10567573

B1: MFF (parent)
chain: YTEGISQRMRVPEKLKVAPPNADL

Variants of: B1
measurementNotes: protein stability index of a GFP-peptide fusion (GPS, HEK-293T) (PSI 1-6); higher = more stable;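 note: lentivirally expressed fusions sorted by FACS into six bins by GFP to DsRed ratio, PSI derived from sequencing read proportions per bin multiplied by bin number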
conditionNotes: c terminus: a fixed tail appended
testReadout: protein stability index
Just the number.

**Query** Entry YTEGISQRMRHPEKLKVAPPNADL [V11H] has what protein stability index?
**Result** 2.96

**Query** Entry YTEGISQRMRVPEKLKVAPPHADL [N21H] has what protein stability index?
**Result** 2.91

**Query** Entry YTEGISQRMRVPEKNKVAPPNADL [L15N] has what protein stability index?
**Result** 2.99

**Query** Entry YTEGISARMRVPEKLKVAPPNADL [Q7A] has what protein stability index?
**Result** 2.97

**Query** Entry YTEGITQRMRVPEKLKVAPPNADL [S6T] has what protein stability index?
**Result** 2.98

**Query** Entry YQEGISQRMRVPEKLKVAPPNADL [T2Q] has what protein stability index?
**Result** 3.03

**Query** Entry YTEGISQRMRVPEKLKVAPPNADK [L24K] has what protein stability index?
**Result** 3

**Query** Entry YTEGINQRMRVPEKLKVAPPNADL [S6N] has what protein stability index?
**Result** 2.93

**Query** Entry YTEGISQRMRVPEKLKVAPPNADM [L24M] has what protein stability index?
**Result** 2.91
